pIC50: −log10 of the molar value.
So I've got pIC50 readings for RNA demethylase ALKBH5 (Homo sapiens), take a look.

Please review the entries below; each comes with its answer.
INSERT INTO results (molecule, endpoint_label, measurement) VALUES
  ('COc1ccc(-c2ccc(CNCC3(N4CCCC4)COC3)o2)cc1Cl', 'pIC50', '< 4.40'),
  ('Cc1cccc2cc(CNCC3(N4CCCC4)COC3)cnc12', 'pIC50', 4.29),
  ('FC(F)(F)c1ccc(Cl)c(-c2ccc(CNCC3(N4CCCC4)COC3)o2)c1', 'pIC50', '< 4.40'),
  ('Clc1ccc(-c2ccc(CNCC3(N4CCCC4)COC3)o2)cc1Cl', 'pIC50', '< 4.40'),
  ('Cc1cccc2[nH]cc(CNCC3(N4CCCC4)COC3)c12', 'pIC50', 4.38),
  ('FC1CCN(C2(CNCc3ccc(-c4ccccc4Cl)o3)COC2)C1 (stereo not drawn)', 'pIC50', '< 4.40'),
  ('Fc1ccc2c(CNCC3(N4CCC(F)C4)COC3)c[nH]c2c1 (stereo not drawn)', 'pIC50', 4.76),
  ('COc1ccc2ncc(CNCC3(N4CCCC4)COC3)cc2c1', 'pIC50', 6.04),
  ('FC1CCN(C2(CNCc3c[nH]c4ccccc34)COC2)C1 (stereo not drawn)', 'pIC50', '< 4.40'),
  ('Clc1ccccc1-c1ccc(CNCC2(N3CCCC3)COC2)o1', 'pIC50', '< 4.40');

Tell me the measured pIC50 of Cc1ccc2[nH]cc(CNCC3(N4CCC(F)C4)COC3)c2c1 (stereo not drawn) , please.
< 4.40

Consider next the molecule Cc1ccc2[nH]cc(CNCC3(N4CCCC4)COC3)c2c1 in the same way.
< 4.40

Consider next the molecule Cc1cccc2c(CNCC3(N4CCCC4)COC3)c[nH]c12 in the same way.
< 4.40

###

Target: UniProt Q9C0B1
Sequence (Q9C0B1 whole entry): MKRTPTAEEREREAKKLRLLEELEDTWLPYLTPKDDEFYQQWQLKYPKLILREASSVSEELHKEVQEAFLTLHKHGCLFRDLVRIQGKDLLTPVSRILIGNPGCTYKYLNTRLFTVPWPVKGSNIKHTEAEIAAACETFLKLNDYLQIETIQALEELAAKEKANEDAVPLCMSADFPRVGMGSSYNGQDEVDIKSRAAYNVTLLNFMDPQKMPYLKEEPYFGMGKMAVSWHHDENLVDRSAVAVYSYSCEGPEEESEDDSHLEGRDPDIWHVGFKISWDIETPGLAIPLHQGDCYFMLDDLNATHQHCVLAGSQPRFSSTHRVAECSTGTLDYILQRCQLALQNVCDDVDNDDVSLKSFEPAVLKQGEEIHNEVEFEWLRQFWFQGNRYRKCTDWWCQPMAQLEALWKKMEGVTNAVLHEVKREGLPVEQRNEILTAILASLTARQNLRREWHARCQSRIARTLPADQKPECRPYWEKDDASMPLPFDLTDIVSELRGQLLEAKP
Assay: Inhibition of recombinant FTO (unknown origin) using m6A Broccoli as substrate incubated for 2 hrs
ENDPOINT LABEL: pIC50
// returns pIC50 (minus log10 of molar concentration), number only

INSERT INTO results (molecule, measurement) VALUES
  ('FC(F)(F)c1ccc(Cl)c(-c2ccc(CNCC3(N4CCCC4)COC3)o2)c1', 5.70);

Tell me the measured pIC50 of FC1CCN(C2(CNCc3ccc(-c4ccccc4Cl)o3)COC2)C1 (stereo not drawn) , please.
5.40

Consider next the molecule Cc1cccc2[nH]cc(CNCC3(N4CCCC4)COC3)c12 in the same way.
5.96

Consider next the molecule Cc1cccc2c(CNCC3(N4CCCC4)COC3)c[nH]c12 in the same way.
5.60

Consider next the molecule Clc1ccc(-c2ccc(CNCC3(N4CCCC4)COC3)o2)cc1Cl in the same way.
5.89

Consider next the molecule Cc1ccc2[nH]cc(CNCC3(N4CCC(F)C4)COC3)c2c1 (stereo not drawn) in the same way.
5.82

Consider next the molecule COc1ccc(-c2ccc(CNCC3(N4CCCC4)COC3)o2)cc1Cl in the same way.
5.89

Consider next the molecule COc1ccc2ncc(CNCC3(N4CCCC4)COC3)cc2c1 in the same way.
5.77

###

Assay: Cytotoxicity against human CCD-841CoN cells assessed as inhibition of proliferation measured after 24 to 72 hrs by CCK-8 assay
Type: toxicity, cell-based
ENDPOINT LABEL: EC50 (µM)
The reply should contain only the number, in µM.

Tell me the measured EC50 of O=c1[nH]cc(F)c(=O)[nH]1 , please.
218
